Values from patent US11214803B2

Tested on: Yap1 mRNA
Test: Dose-dependent inhibition of human Yap1 in A-431 cells (Example 8, 10,000 cells per well, RTS4814)
Type: cell-based
Conditions: 2000.00 nM; A-431 cells, 10,000 cells per well, free uptake, approximately 48 hours, RTS4814
Strand notation (5' to 3'): a small letter for the sugar, then the base; units joined by * are phosphorothioate-linked, units joined directly phosphodiester-linked; [ ] holds rarer units or linkages, { } end groups; capitals alone tell only the bases. k = constrained ethyl (cEt); [5mC] = 5-methylcytosine; d = 2'-deoxy (DNA)
metric: Yap1 mRNA, % UTC
Value and unit, in that order.

Sample answers from the record:
substance	value.measured
1074535 (kG*kT*kA*dA*dT*dA*dG*d[5mC]*dT*d[5mC]*dT*dT*dT*k[5mC]*kT*kA; antisense) [compound 1074535]	5 % UTC
1075115 (kG*kT*kA*dT*dA*dG*d[5mC]*d[5mC]*dT*dT*dA*dT*dT*k[5mC]*kT*kT; antisense) [compound 1075115]	9 % UTC

Turning to the following substance.
## Task Data request, read-out Yap1 mRNA, % UTC, for 1076458 (k[5mC]*kT*kT*dA*dA*dT*dT*dA*dG*d[5mC]*d[5mC]*dT*d[5mC]*kA*kG*kT; antisense) [compound 1076458]
## Result 10 % UTC

====

System: Yap1 mRNA
Test: Antisense inhibition of human Yap1 in A-431 cells by cEt gapmers, single dose (Example 2, RTS4814)
Type: cell-based
Details: Table 33; Yap1 mRNA, percent of untreated control; 3-10-3 cEt gapmers targeting SEQ ID NO.: 1, and 2
Strand notation (5' to 3'): a small letter for the sugar, then the base; units joined by * are phosphorothioate-linked, units joined directly phosphodiester-linked; [ ] holds rarer units or linkages, { } end groups; capitals alone tell only the bases. k = constrained ethyl (cEt); [5mC] = 5-methylcytosine; d = 2'-deoxy (DNA)
metric: YAP1 (% UTC)
Lab book: enter the figure in % UTC, no units written.

substance	YAP1 (% UTC)
1076275 (kG*kT*kA*dT*dT*dA*dG*dA*dT*dA*dA*dA*dG*k[5mC]*kA*kG; antisense) [compound 1076275]	10
1074643 (antisense kT*kT*kG*dA*dA*dG*dG*dG*d[5mC]*d[5mC]*dA*dA*dA*kA*kT*kA) [compound 1074643]	68
1075315 (antisense k[5mC]*kA*kT*dA*dA*d[5mC]*dT*dT*dG*dA*dT*dG*dA*k[5mC]*kT*k[5mC]) [compound 1075315]	27
1076051 (k[5mC]*kT*kT*dA*dA*d[5mC]*dT*dA*dT*dT*d[5mC]*dA*dG*k[5mC]*k[5mC]*k[5mC]; antisense) [compound 1076051]	21
1074739 (kG*kA*k[5mC]*dT*d[5mC]*dT*dT*dA*dG*dG*dT*d[5mC]*dT*k[5mC]*k[5mC]*kT; antisense) [compound 1074739]	24

## Task YAP1 (% UTC) lookup needed for 1075923 (antisense kT*kT*kT*dA*dA*dT*dA*d[5mC]*dT*d[5mC]*dT*d[5mC]*dT*kG*kG*kG) [compound 1075923] , thanks.
## Result 42

## Task What about 1075251 (kT*kA*kA*dT*dT*dA*d[5mC]*dG*dA*dT*dT*dA*dG*kA*kT*k[5mC]; antisense) [compound 1075251] ?
## Result 79

====

Tested on: Yap1 mRNA
Experiment: Antisense inhibition of human Yap1 in SNU-449 cells by modified oligonucleotides, single dose (Example 5, RTS36584)
Type: cell-based
Details: Table 43 experiment; SNU-449 cells, 10,000 cells per well, free uptake, 2,000 nM, approximately 48 hours; RTS36584; Yap1 mRNA normalized to RIBOGREEN, relative to untreated control cells
Strand notation (5' to 3'): a small letter for the sugar, then the base; units joined by * are phosphorothioate-linked, units joined directly phosphodiester-linked; [ ] holds rarer units or linkages, { } end groups; capitals alone tell only the bases. e = 2'-O-(2-methoxyethyl) (MOE); k = constrained ethyl (cEt); [5mC] = 5-methylcytosine; d = 2'-deoxy (DNA)
Entries and their YAP1 (% UTC) values follow.
Number in % UTC, nothing else.

Solved entries:
substance	test.target	YAP1 (% UTC)
1198480 (antisense kT*kT*dT*dT*dA*d[5mC]*dA*dT*dT*dA*dG*eG*kA*eA*k[5mC]*eA) [Compound 1198480]	Yap1 mRNA	75
958499 (kA*kT*kT*dA*dG*dA*dG*dT*dA*dT*dG*dT*dG*kG*k[5mC]*kA) [Compound 958499]	Yap1 mRNA	14
1095595 (antisense k[5mC]*kA*d[5mC]*dT*dG*dA*dG*dG*dT*dA*dT*eA*eA*e[5mC]*kT*kG) [Compound 1095595]	Yap1 mRNA	63
1095594 (antisense k[5mC]*kT*dG*dA*dG*dG*dT*dA*dT*dA*dA*e[5mC]*eT*eG*kG*kG) [Compound 1095594]	Yap1 mRNA	27
1198472 (antisense kT*kA*dT*dA*dT*dT*dA*dG*dA*dG*dT*eA*kT*eG*kT*eG) [Compound 1198472]	Yap1 mRNA	60

## Task State the recorded YAP1 (% UTC) for this entry: 1198259 (kA*kA*dT*dA*dT*dT*dG*d[5mC]*dA*dA*dT*e[5mC]*eT*eG*kT*k[5mC]; antisense) [Compound 1198259]
## Result 51

## Task // repeat for 1198462 (antisense kT*kG*dG*dA*dA*dA*dT*dT*dG*dT*d[5mC]*eT*k[5mC]*eA*kT*eG) [Compound 1198462] and report
## Result 27

## Task Note, next up: 1198470 (antisense kT*kA*dT*dT*dA*dG*dA*dG*dT*dA*dT*eG*kT*eG*kG*e[5mC]) [Compound 1198470]
## Result 17

## Task Same thing, different substance: 1198258 (kA*kT*dA*dT*dT*dG*d[5mC]*dA*dA*dT*d[5mC]*eT*eG*eT*k[5mC]*kT; antisense) [Compound 1198258]
## Result 52

## Task Record: 1198467 (antisense kT*kA*dG*dA*dG*dT*dA*dT*dG*dT*dG*eG*k[5mC]*eA*kA*eT) [Compound 1198467]
## Result 27

## Task Same thing, different substance: 1198283 (kT*kT*dA*dG*dA*d[5mC]*dT*dA*dA*dG*dT*eA*eA*eG*kG*kT; antisense) [Compound 1198283]
## Result 99

## Task Continue with 1198281 (kG*kA*d[5mC]*dT*dA*dA*dG*dT*dA*dA*dG*eG*eT*eT*kT*k[5mC]; antisense) [Compound 1198281]
## Result 71

## Task Next substance up: 1198457 (kA*kT*dT*dG*dT*d[5mC]*dT*d[5mC]*dA*dT*dG*e[5mC]*k[5mC]*eT*kT*eA) [Compound 1198457]
## Result 18

## Task Could you do the same for 1198249 (kT*kT*dA*dT*dA*dT*dG*dG*dT*dT*dT*eT*eG*eT*kG*kT; antisense) [Compound 1198249] , please?
## Result 42

## Task Next: 1198247 (kA*kT*dT*d[5mC]*dA*dG*dA*dT*dT*dT*dA*eG*eG*eA*kT*kG; antisense) [Compound 1198247]
## Result 99

## Task Please give the result for 1198464 (antisense kA*kT*dA*dT*dG*dG*dA*dA*dA*dT*dT*eG*kT*e[5mC]*kT*e[5mC]) [Compound 1198464] too.
## Result 41

## Task What do we get for 1198257 (kA*dT*dT*dG*d[5mC]*dA*dA*dT*d[5mC]*dT*dG*eT*e[5mC]*eT*kG*kA; antisense) [Compound 1198257] ?
## Result 85

====

Tested on: Yap1 mRNA
Assay: Antisense inhibition of human Yap1 in SNU-449 cells by modified oligonucleotides, single dose (Example 5, RTS36584)
Assay type: cell-based
Details: Yap1 mRNA, percent of untreated control; modified oligonucleotides targeting SEQ ID NO: 1 and 2; Table 47
Strand notation (5' to 3'): a small letter for the sugar, then the base; units joined by * are phosphorothioate-linked, units joined directly phosphodiester-linked; [ ] holds rarer units or linkages, { } end groups; capitals alone tell only the bases. e = 2'-O-(2-methoxyethyl) (MOE); k = constrained ethyl (cEt); [5mC] = 5-methylcytosine; d = 2'-deoxy (DNA)
metric: YAP1 (% UT)
// note: answer is a bare numeric in % UT

substance	value.measured
1198860 (kA*kA*d[5mC]*dT*d[5mC]*dT*dT*dA*dT*dA*dT*kG*eG*kT*eT*kT; antisense) [Compound 1198860]	82
1197180 (antisense kA*kT*kG*dG*dA*dA*dA*dT*dT*dG*dT*d[5mC]*dT*k[5mC]*kA*kT) [Compound 1197180]	47
1096369 (antisense kG*kT*kG*d[5mC]*dT*dT*dT*dG*dG*dA*dA*dG*dA*kT*k[5mC]*kT) [Compound 1096369]	45
1197206 (antisense kA*kT*kA*dT*dT*dG*d[5mC]*dA*dA*dT*d[5mC]*dT*dG*kT*k[5mC]*kT) [Compound 1197206]	63
1198858 (k[5mC]*kT*d[5mC]*dT*dT*dA*dT*dA*dT*dG*dG*kT*eT*kT*eT*kG) [Compound 1198858]	29

## Task Data request, read-out YAP1 (% UT), for 1197188 (antisense kT*kT*kG*dG*dA*dA*dG*dA*dT*d[5mC]*dT*dG*dA*kA*kA*k[5mC]) [Compound 1197188]
## Result 96

## Task Would you mind doing 1197185 (antisense kA*kA*kG*d[5mC]*dA*d[5mC]*dT*dT*dT*dT*dA*d[5mC]*dA*kT*kT*kA) [Compound 1197185] as well?
## Result 55

## Task Same thing, different substance: 1197224 (antisense kA*k[5mC]*kT*dA*dA*dG*dT*dA*dA*dG*dG*dT*dT*kT*k[5mC]*k[5mC]) [Compound 1197224]
## Result 24

## Task Would you mind doing 1197182 (antisense kT*kT*kT*dT*dA*d[5mC]*dA*dT*dT*dA*dG*dG*dA*kA*k[5mC]*kA) [Compound 1197182] as well?
## Result 115

## Task Then this substance: 1009325 (kA*kG*kA*dG*dT*dA*dT*dG*dT*dG*dG*d[5mC]*dA*kA*kT*kA; antisense) [Compound 1009325]
## Result 16
